Test system: SF-539 CNS
Assay: NCI-60 one-dose screen, 48 h (100 = growth as untreated, 0 = no growth, -100 = all killed)
Details: 10 µM
The panel holds about 83,000 compounds, 20% with a hit somewhere; the sample as a whole holds those more often.
Rule: growth of 30% or more gives True; anything lower gives False.

Molecule	Target or test system	Class label
O=C(CN1CCN(c2ncnc3c2cnn3-c2ccccc2)CC1)Nc1ccc(Cl)cc1	SF-539 CNS	True
CCn1c(SCC(=O)Nc2ccc(-c3nc4ccccc4[nH]3)cc2)nc2ccccc2c1=O	SF-539 CNS	False
COc1ccc(OC)c(-n2cc(C#N)c(N)c2C(=O)c2ccc(Cl)cc2Cl)c1	SF-539 CNS	False
O=C(CSc1nc2ccccc2c(=O)n1-c1ccc(Cl)cc1)Nc1ccc(-c2nc3ccccc3[nH]2)cc1	SF-539 CNS	False
O=C(CN1CCN(c2ncnc3c2cnn3-c2ccccc2)CC1)Nc1ccc(Br)cc1	SF-539 CNS	True
Cn1cc(/C=C(/SS/C(=C/c2cn(C)c3cccc(C(=O)O)c23)C(=O)O)C(=O)O)c2c(C(=O)O)cccc21	SF-539 CNS	True
COc1cccc(O)c1/C=C1\SCc2cc3c(OC)cccc3[o+]c21	SF-539 CNS	True
COc1ccc(C2OC[C@@]3(C)C4CC[C@]5(C)C(CC=C6C7CC(C)(C)CC[C@]7(C(=O)O)CC[C@]65C)[C@@]4(C)C[C@@H](O)[C@@H]3O2)cc1 (stereo partly drawn)	SF-539 CNS	True

Value source: PubChem BioAssay (NCI)
